Values from ChEMBL document CHEMBL3991601

Target: Macrophage-stimulating protein receptor (Homo sapiens); also: in the data inactive means no Kd found up to 30 µM
Sequence (Q04912 25-304 limits assumed): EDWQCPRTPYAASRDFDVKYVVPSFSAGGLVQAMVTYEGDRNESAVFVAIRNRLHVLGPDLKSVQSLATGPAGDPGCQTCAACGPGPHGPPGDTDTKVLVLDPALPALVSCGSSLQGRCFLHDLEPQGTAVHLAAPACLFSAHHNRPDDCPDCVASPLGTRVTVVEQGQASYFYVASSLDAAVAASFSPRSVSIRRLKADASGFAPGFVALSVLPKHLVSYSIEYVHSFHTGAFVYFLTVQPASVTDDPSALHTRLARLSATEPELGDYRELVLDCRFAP
Sequence (Q04912 310-1400 limits assumed): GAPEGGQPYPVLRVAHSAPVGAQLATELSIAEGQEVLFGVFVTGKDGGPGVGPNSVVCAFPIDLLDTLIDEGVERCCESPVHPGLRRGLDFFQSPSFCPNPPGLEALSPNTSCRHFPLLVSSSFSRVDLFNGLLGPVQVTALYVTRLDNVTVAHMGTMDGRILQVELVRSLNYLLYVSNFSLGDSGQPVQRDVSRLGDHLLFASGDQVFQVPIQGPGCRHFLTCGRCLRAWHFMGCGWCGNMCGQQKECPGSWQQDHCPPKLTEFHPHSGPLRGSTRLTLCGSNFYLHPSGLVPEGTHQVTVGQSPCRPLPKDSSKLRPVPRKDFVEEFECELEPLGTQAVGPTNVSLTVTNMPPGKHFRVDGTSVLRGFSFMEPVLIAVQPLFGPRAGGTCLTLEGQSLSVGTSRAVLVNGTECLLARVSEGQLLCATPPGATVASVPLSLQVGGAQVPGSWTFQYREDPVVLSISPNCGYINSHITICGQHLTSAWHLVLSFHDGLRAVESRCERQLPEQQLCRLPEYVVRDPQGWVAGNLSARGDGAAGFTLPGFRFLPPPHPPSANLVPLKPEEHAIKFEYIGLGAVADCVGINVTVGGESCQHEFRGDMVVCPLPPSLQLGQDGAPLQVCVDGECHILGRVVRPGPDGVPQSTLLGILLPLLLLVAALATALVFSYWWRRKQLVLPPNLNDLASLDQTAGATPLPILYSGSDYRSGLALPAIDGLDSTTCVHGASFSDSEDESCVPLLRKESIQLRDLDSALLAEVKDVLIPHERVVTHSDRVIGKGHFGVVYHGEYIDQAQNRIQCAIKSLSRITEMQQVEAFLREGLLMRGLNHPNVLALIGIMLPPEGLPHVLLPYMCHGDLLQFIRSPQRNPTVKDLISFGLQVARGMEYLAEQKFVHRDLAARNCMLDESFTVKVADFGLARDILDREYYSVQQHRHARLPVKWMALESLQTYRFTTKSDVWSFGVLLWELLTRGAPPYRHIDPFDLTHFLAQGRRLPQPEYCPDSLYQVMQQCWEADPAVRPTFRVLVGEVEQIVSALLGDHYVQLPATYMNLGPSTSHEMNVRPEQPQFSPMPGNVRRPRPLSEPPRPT
Calls of active or inactive are those of the source.
Your reply should match one of these outcome classes. active, inactive

Exercise: Given COc1ncc(-c2ccc3nccc(-c4ccnnc4)c3c2)cc1NS(=O)(=O)c1ccc(F)cc1F [OMIPALISIB] , state the outcome it received in this test.
Key: inactive

Exercise: Given Cc1csc(-c2nnc(Nc3ccc(Oc4ncccc4-c4ccnc(N)n4)cc3)c3ccccc23)c1 [AMG-900] , state the outcome it received in this test.
Key: inactive

Exercise: Given COc1ccc(S(=O)(=O)N(C(C)=O)c2ccccc2/C=C/c2cc[n+]([O-])cc2)cc1 [HMN-214] , state the outcome it received in this test.
Key: inactive

Exercise: Given CC(C)c1cc(CNc2nc(Nc3cc(C4CC4)[nH]n3)cc(N3CCN(C)CC3)n2)on1 [XL-228] , state the outcome it received in this test.
Key: active

Exercise: Given C[C@@H](N)c1ccc(C(=O)Nc2ccnc3[nH]ccc23)cc1 [Y-39983] , state the outcome it received in this test.
Key: inactive

Exercise: Given O=C(Nc1c[nH]nc1-c1nc2cc(CN3CCOCC3)ccc2[nH]1)NC1CC1 [AT-9283] , state the outcome it received in this test.
Key: inactive

Exercise: Given CCOc1cc2ncc(C#N)c(Nc3ccc(F)c(Cl)c3)c2cc1NC(=O)/C=C/CN(C)C [PELITINIB] , state the outcome it received in this test.
Key: inactive

Exercise: Given Cc1[nH]c(/C=C2\C(=O)Nc3ccccc32)c(C)c1CCC(=O)O [ORANTINIB] , state the outcome it received in this test.
Key: inactive

Exercise: Given Nc1ncnc2c1c(-c1cccc(OCc3ccccc3)c1)cn2[C@H]1C[C@@H](CN2CCC2)C1 [AEW-541] , state the outcome it received in this test.
Key: inactive

Exercise: Given CN1C/C=C/CCOc2cccc(c2)-c2ccnc(n2)Nc2cccc(c2)C1 [ZOTIRACICLIB] , state the outcome it received in this test.
Key: inactive

Exercise: Given CNC(=O)c1cccc2cc(Oc3ccnc4cc(OCC5(N)CC5)c(OC)cc34)ccc12 [LUCITANIB] , state the outcome it received in this test.
Key: inactive

Exercise: Given CC(C)(C)c1nc(-c2cccc(NS(=O)(=O)c3c(F)cccc3F)c2F)c(-c2ccnc(N)n2)s1 [DABRAFENIB] , state the outcome it received in this test.
Key: inactive

Exercise: Given C[C@H]1CNCCCN1S(=O)(=O)c1cccc2cncc(F)c12 , state the outcome it received in this test.
Key: inactive

Exercise: Given CCn1cc(-c2ccnc3[nH]c(-c4cccc(CN(C)C)c4)cc23)c(-c2ccc(NC(=O)N(C)C)cc2)n1 [GSK-1070916] , state the outcome it received in this test.
Key: inactive

Exercise: Given C=CC(=O)Nc1cc2c(Nc3ccc(F)c(Cl)c3)ncnc2cc1C#CC(C)(C)N1CCN(C)CC1 [AV-412 FREE BASE] , state the outcome it received in this test.
Key: inactive

Exercise: Given CCNC(=O)C#Cc1ccc2c(c1)NC(=O)/C2=C(\Nc1ccc(CN(C)C)cc1)c1ccccc1 , state the outcome it received in this test.
Key: inactive

Exercise: Given COCC(=O)NC/C=C/c1ccc2ncnc(Nc3ccc(Oc4ccc(C)nc4)c(C)c3)c2c1 [CP-724714] , state the outcome it received in this test.
Key: inactive
